Where these numbers come from: patent US9840478B2

biological target: UniProtKB P04585
READOUT NAME: pIC50
Give bare numbers, as −log10 of the molar value.

Answered examples (5):
CS(=O)(=O)N1CCNC[C@@H]1CCc1c(F)cncc1NC(=O)[C@@H](N)[C@@H](c1ccc(F)cc1)c1cc(F)cc(F)c1 : 8.46
O=C(CC1(c2ccccc2)CCCNC1)Nc1cncc(F)c1CC[C@H]1CNCCN1S(=O)(=O)C1CC1 (stereo partly shown) : 5.89
CS(=O)(=O)N1CCNC[C@H]1CCc1c(F)cncc1NC(=O)[C@@H](N)C(c1ccc(F)cc1)c1ccc(F)cc1 : 5.85
O=C(C[C@@H](c1ccc(F)cc1)c1cc(F)cc(F)c1)Nc1cncc(F)c1CC[C@H]1CNCCN1C(=O)Nc1ccccc1 : 6.60
CC(C)[C@H](c1ccc(F)cc1)[C@H](N)C(=O)Nc1cncc(F)c1CC[C@H]1CNCCN1S(=O)(=O)C1CC1 : 7.15

Fill in pIC50 for each of the 2 molecules listed.
1. N[C@H](C(=O)Nc1cncc(F)c1CC[C@@H]1CNCCN1S(=O)(=O)c1ccccc1)C(c1ccc(F)cc1)c1ccc(F)cc1
2. COC(=O)N[C@H](C(=O)Nc1cccc(F)c1CC[C@H]1CNCCN1S(=O)(=O)c1ccccc1)C(c1cccc(F)c1)c1cccc(F)c1

[8.00, 9.32]

====

Assignment: determine reported IC50 for the given molecules.
biological target: wildtype HIV-1 protease (Human immunodeficiency virus type 1 group M subtype B, UniProt P04585)
Numbers only, in nM.

Sample records with IC50:
N[C@H](C(=O)Nc1cncc(F)c1CCC1CNCCN1S(=O)(=O)Cc1ccccc1)C(c1ccc(F)cc1)c1ccc(F)cc1 (stereo partly drawn) : 3.4
N[C@H](C(=O)Nc1cncc(F)c1CC[C@H]1CNCCN1S(=O)(=O)c1ccccc1)C(c1ccc(F)cc1)c1ccc(F)cc1 : 0.2
C[C@H]1CNC[C@H](CCc2c(F)cccc2NC(=O)[C@@H](N)[C@@H](c2ccc(F)cc2)c2cc(F)cc(F)c2)N1S(C)(=O)=O : 6.1
CS(=O)(=O)N1CCNC[C@@H]1CCc1c(F)cncc1NC(=O)[C@@H](N)C(c1ccc(F)cc1)c1ccc(F)cc1 : 9.7
CS(=O)(=O)NC1CCN(S(=O)(=O)N2CCNC[C@@H]2CCc2c(F)cncc2NC(=O)C[C@@H](c2ccc(F)cc2)c2cc(F)cc(F)c2)CC1 : 10

Now for a further molecule.
State its IC50 for this molecule: `Nc1ccc(S(=O)(=O)N2CCNC[C@@H]2CCc2c(F)cncc2NC(=O)[C@@H](N)C(c2ccc(F)cc2)c2ccc(F)cc2)cc1`
0.2

====

biological target: wildtype HIV-1 protease (Human immunodeficiency virus type 1 group M subtype B, UniProt P04585)
// NB: equality with 5 nM counts as Condition not met; only IC50 strictly below is Condition met

Use the examples below as a reference point.
Nc1ccc(S(=O)(=O)N2CCNC[C@H]2CCc2c(F)cncc2NC(=O)[C@@H](N)C(c2ccc(F)cc2)c2ccc(F)cc2)cc1 : Condition met
CS(=O)(=O)C1CCN(S(=O)(=O)N2CCNC[C@@H]2CCc2c(F)cncc2NC(=O)C[C@@H](c2ccc(F)cc2)c2cc(F)cc(F)c2)CC1 : Condition not met
O=C(C[C@@H](c1ccc(F)cc1)c1cc(F)cc(F)c1)Nc1cncc(F)c1CC[C@H]1CNCCN1S(=O)(=O)N1CC[C@@H](NC(=O)C(F)(F)F)C1 : Condition not met
N[C@H](C(=O)Nc1cccc(F)c1CC[C@H]1CNCCN1S(=O)(=O)c1ccccc1)C(c1cccc(F)c1)c1cccc(F)c1 : Condition met

# input for lookup
Hello, I'm reviewing records and need to know if IC50 of `CC(=O)NC1CCN(S(=O)(=O)N2CCNC[C@@H]2CCc2c(F)cncc2NC(=O)C[C@@H](c2ccc(F)cc2)c2cc(F)cc(F)c2)CC1` is below 5 nM. Could you check?
Condition not met
